- Study system: JAK1 (Homo sapiens)
- Construct: made in house; host or cells: SF9 insect cells (baculovirus)
- Sequence (P23458 852-1154): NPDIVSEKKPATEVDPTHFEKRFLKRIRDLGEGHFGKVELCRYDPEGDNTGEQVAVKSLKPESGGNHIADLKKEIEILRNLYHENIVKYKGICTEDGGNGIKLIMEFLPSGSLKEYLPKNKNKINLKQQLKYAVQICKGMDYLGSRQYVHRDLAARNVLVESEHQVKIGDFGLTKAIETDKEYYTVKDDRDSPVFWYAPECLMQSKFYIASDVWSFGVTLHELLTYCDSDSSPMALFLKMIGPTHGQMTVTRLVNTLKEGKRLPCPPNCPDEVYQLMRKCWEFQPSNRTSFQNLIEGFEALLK
- Test method notes: JAK1 inhibition (Table 4)
- Type: biochemical
- Condition description: read-out: JAK1 Ki
Reported property: Ki (nM)
Lab book: enter the figure in nM, no units written.

For C[C@H](O)c1nc2cnc3[nH]ccc3c2n1C1CCCOC1 (single isomer, unassigned) [Example 462] , what is its reported Ki?
90

Form field: reported Ki of CC(O)c1nc2cnc3[nH]ccc3c2n1C1CCN(C(=O)N(C)C)CC1 (racemic)
156

What value of Ki has been reported for the following compound? CCN1CC[C@@H](n2c([C@@H](C)O)nc3cnc4[nH]ccc4c32)[C@@H](F)C1
7.07

What value of Ki has been reported for the following compound? c1ncc(CN[C@H]2CC[C@@H](n3cnc4cnc5[nH]ccc5c43)CC2)cn1
11.7

Find the recorded Ki belonging to c1ccc(CCN2CCC[C@@H](n3cnc4cnc5[nH]ccc5c43)C2)cc1 and report it.
63.3

Quick one: Ki for O=C([C@@H]1CCCN1C1CCC1)N1CCC(n2cnc3cnc4[nH]ccc4c32)CC1 ?
65.3

// Ki lookup, key: CC(C)(O)c1nc2cnc3[nH]ccc3c2n1C1CCN(Cc2ccccc2)CC1
49.9

Query (compound): c1ccc(CCN2CCC(n3cnc4cnc5[nH]ccc5c43)CC2)cc1 ; field requested: Ki
5.61

----------
- Study system: JAK3 (Homo sapiens, UniProt P52333)
- Construct: made in house; host or cells: SF9 insect cells (baculovirus)
- Sequence (P52333 783-1124): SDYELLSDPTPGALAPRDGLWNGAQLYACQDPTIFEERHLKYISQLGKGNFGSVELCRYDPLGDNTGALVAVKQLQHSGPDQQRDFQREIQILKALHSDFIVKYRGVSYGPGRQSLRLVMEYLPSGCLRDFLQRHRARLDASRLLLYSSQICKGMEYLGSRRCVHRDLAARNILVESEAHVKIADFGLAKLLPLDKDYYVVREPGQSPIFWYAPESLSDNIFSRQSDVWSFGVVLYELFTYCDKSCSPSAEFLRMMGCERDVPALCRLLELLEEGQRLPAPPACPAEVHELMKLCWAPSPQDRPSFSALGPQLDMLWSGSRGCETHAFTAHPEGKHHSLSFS
- Test method notes: JAK3 inhibition (Table 4)
- Type: biochemical
- Condition description: read-out: JAK3 Ki
Provide the reported Ki of each item.
Unit nM implied. Number only.

Can you share its Ki? I mean this compound: OCc1nc2cnc3[nH]ccc3c2n1C1CCNCC1 [Example 236]
128

Dear colleague, I am looking for the recorded Ki of the following compound: N#CCCN1CCC(n2c(CC(=O)N3CCOCC3)nc3cnc4[nH]ccc4c32)CC1 [Example 160]
10.7

Which Ki value belongs to O=C(O)C1CC1C(O)c1nc2cnc3[nH]ccc3c2n1C1CCCCC1 (racemic) [Example 942] ?
94.1

Name the recorded Ki for O=C(Cc1nc2cnc3[nH]ccc3c2n1C1CCN(Cc2ccccc2)CC1)NC1CCCC1 [Example 99] .
10.8

Dear colleague, I am looking for the recorded Ki of the following compound: COCC(=O)NCCc1nc2cnc3[nH]ccc3c2n1C1CCN(CCC#N)CC1 [Example 372]
28.8

Dear colleague, I am looking for the recorded Ki of the following compound: Cc1nc2cnc3[nH]ccc3c2n1[C@@H]1CCCN(C(=O)CC#N)C1 [Example 272]
3.14

Name the recorded Ki for CCN1CCC(n2c(CCNS(C)(=O)=O)nc3cnc4[nH]ccc4c32)C(F)(F)C1 (single isomer, unassigned) [Example 806] .
17.9

State the recorded Ki for this entry: C[C@@H](O)c1nc2cnc3[nH]ccc3c2n1C1(C)CCN(S(C)(=O)=O)CC1 [Example 585]
88.3

----------
- Study system: JAK3 (Homo sapiens)
- Construct: made in house; host or cells: SF9 insect cells (baculovirus)
- Test method notes: JAK3 inhibition (Table 4)
- Assay type: biochemical
- Condition description: read-out: JAK3 Ki
Reported property: log10 Ki (log10 of the value in nM)
Quick note: numbers are log10 of Ki, with nM as the unit.

# query: log10 Ki of entry CCn1ncc(CN2CCC(n3c([C@@H](C)O)nc4cnc5[nH]ccc5c43)CC2)c1C [Example 900]
2.11

Please look up its log10 Ki: N#CCC(=O)N1CCC[C@@H](n2c(C(F)(F)F)nc3cnc4[nH]ccc4c32)C1 [Example 302]
1.82

Consider the compound CC1(n2cnc3cnc4[nH]ccc4c32)CCN(CC(F)(F)F)CC1 [Example 752] and give its measured log10 Ki.
2.38

May I ask what log10 Ki has been recorded for O[C@@H](c1nc2cnc3[nH]ccc3c2n1C1CCCCC1)C(F)(F)F [Example 878] ?
1.13

Look at this compound and give its reported log10 Ki. CC(C)(C)OC(=O)N1CCC[C@@H]1CN[C@H]1CC[C@H](n2cnc3cnc4[nH]ccc4c32)CC1 [Example 556]
2.95

Entry CC(C)(O)[C@H]1CC[C@@H](n2cnc3cnc4[nH]ccc4c32)CC1 [Example 957] : reported log10 Ki = ?
2.32

Looking for the measured log10 Ki of O=S(=O)(c1cccnc1)N1CCC(n2cnc3cnc4[nH]ccc4c32)CC1 [Example 88] , can you help?
2.61

Name the reported log10 Ki value associated with the compound Cc1nc2cnc3[nH]ccc3c2n1C1CCC2CC(=O)NC2C1 (single isomer, unassigned) [Example 112]
1.80

----------
- Study system: JAK1 (Homo sapiens)
- Construct: made in house; host or cells: SF9 insect cells (baculovirus)
- Test method notes: JAK1 inhibition (Table 4)
- Format: biochemical
- Condition description: read-out: JAK1 Ki
Binning rule for recorded Ki: low value (below 4 nM), medium value (4 nM to below 20 nM), high value (20 nM or more)

Hey, which category is C[C@@H](O)c1nc2cnc3[nH]ccc3c2n1C1CCC(CC#N)CC1 (stereo partly drawn) [Example 1001] in, do you know?
low value

Which band does OC[C@]1(O)CC[C@@H](n2nnc3cnc4[nH]ccc4c32)CC1 fall in?
medium value

Which class is correct for the following compound? Cc1nc2cnc3[nH]ccc3c2n1C1CCC(C)(O)CC1 (stereo not drawn)
low value

Could you tell me which band CC(C)(C)OC(=O)N1CCC[C@@H](n2cnc3cnc4[nH]ccc4c32)C1 belongs to?
medium value

Could you place Cc1nc2cnc3[nH]ccc3c2n1C1CCN(C(=O)NCC(F)(F)F)CC1 in its proper category? Many thanks.
high value

Hi there! Could you help me figure out the category for CC(C)(C)OC(=O)N[C@H]1CC[C@H](n2nnc3cnc4[nH]ccc4c32)CC1 please?
medium value

Which class does Cc1cc(CN2CCC(n3c(C(C)O)nc4cnc5[nH]ccc5c43)C(F)C2)on1 (stereo not drawn) fall in?
low value

Would you mind sorting Cc1nc2cnc3[nH]ccc3c2n1C1CCC(NC(=O)OC(C)(C)C)C1 (racemic) into the appropriate category?
low value

The entry to classify is O=C([C@H]1CC[C@H](n2cnc3cnc4[nH]ccc4c32)CC1)N1CCOCC1 ; which class holds it?
high value

Hey, which category is Cc1noc(CN2CCC(n3c([C@@H](C)O)nc4cnc5[nH]ccc5c43)CC2)n1 in, do you know?
low value

Which Ki band matches N#CCCN1CCC(n2c(CCNC(=O)C3CC3)nc3cnc4[nH]ccc4c32)CC1 ?
low value

Could you place Cc1nc2cnc3[nH]ccc3c2n1[C@@H]1C[C@H]2CC[C@@H](C1)N2Cc1ccccc1 in its proper category? Many thanks.
medium value

Which class holds N#CCCN1CCC(n2c(COCC(F)(F)F)nc3cnc4[nH]ccc4c32)CC1 ?
high value

Looking at CC(C)c1nc2cnc3[nH]ccc3c2n1C1CCN(Cc2ccccc2)CC1 , which class would you pick?
low value

# bin label for OC1CCC(n2cnc3cnc4[nH]ccc4c32)C1 (stereo not drawn)
medium value

GET /class?item= CC(C)NC(=O)Cc1nc2cnc3[nH]ccc3c2n1C1CCNCC1
high value

Hi there! Could you help me figure out the category for O=S1(=O)CCCN1Cc1nc2cnc3[nH]ccc3c2n1C1CCCCC1 please?
medium value

Hi, small favor: classify c1ccc(CN2CCC(n3nnc4cnc5[nH]ccc5c43)CC2)cc1 by its Ki when you get a moment.
medium value

----------
- Study system: JAK3 (Homo sapiens)
- Construct: made in house; host or cells: SF9 insect cells (baculovirus)
- Test method notes: JAK3 inhibition (Table 4)
- Type: biochemical
- Condition description: read-out: JAK3 Ki
pKi: −log10 of the molar value.
Decide using pKi: a value greater than or equal to 6 is condition met, a smaller one is condition not met.

Item c1cc2c(ncc3ncn([C@H]4[C@@H]5CNC[C@@H]54)c32)[nH]1 with pKi of 6 or above?
condition not met

Reported pKi reaches at least 6 for CC1CN(Cc2cncnc2)CCC1n1cnc2cnc3[nH]ccc3c21 (racemic) [Example 342] ?
condition met

Does the compound NC1CCCC(n2cnc3cnc4[nH]ccc4c32)C1 (single isomer, unassigned) [Example 365] have recorded pKi that is 6 or more?
condition met

Is it the case that CC(O)c1nc2cnc3[nH]ccc3c2n1C1CC2CCC1O2 (single isomer, unassigned) [Example 905] has pKi reaching or exceeding 6?
condition met

Determine whether measured pKi meets or exceeds 6 for FC(F)c1nc2cnc3[nH]ccc3c2n1C1CCN(Cc2ccccc2)CC1
condition met

# check: pKi of CCN1CCC(n2c(CCNS(C)(=O)=O)nc3cnc4[nH]ccc4c32)C(F)(F)C1 (racemic) [Example 804] is greater than or equal to 6
condition met

Form field: pKi at least 6? Entry: CC(C)(C)OC(=O)N1CCCC[C@@H]1CN[C@H]1CC[C@H](n2cnc3cnc4[nH]ccc4c32)CC1
condition not met

Test whether the compound CS(=O)(=O)N1CCC(n2c(-c3cccnc3)nc3cnc4[nH]ccc4c32)CC1 records pKi of 6 or higher.
condition met
